All figures here come from ChEMBL document CHEMBL1127023.

biological target: Angiotensin II receptor (Rattus norvegicus) (UniProt P29089+P25095+P35351); assay: In vivo inhibition of angiotensin II (0.1 ug/kg) induced increase in blood pressure in conscious male rat at 3 mg/kg for 3h/7h.; assay type: functional, organism-based; design: dose 3 mg/kg
EXPERIMENTAL_READOUT: inhibition (%)
The answer is to be given in %; state only the numeric part.

Exercise: What is its inhibition for Angiotensin II receptor (Rattus norvegicus) (UniProt P29089+P25095+P35351)? Entry: CCCCc1nc2cccc(C(=O)O)c2n1Cc1ccc(-c2ccccc2-c2nn[nH]n2)cc1
Key: 91

Exercise: What reported inhibition corresponds to CCCCc1nc2ccc(C)c(C(=O)O)c2n1Cc1ccc(-c2ccccc2-c2nn[nH]n2)cc1 on Angiotensin II receptor (Rattus norvegicus) (UniProt P29089+P25095+P35351)?
Key: 40

Exercise: # get_value(readout= inhibition, system= Angiotensin II receptor (Rattus norvegicus) (UniProt P29089+P25095+P35351)) for CCCCc1nc2cccc(C(=O)O)c2n1Cc1ccc(-c2ccccc2C(=O)O)cc1
Key: 2

Exercise: # get_value(readout= inhibition, system= Angiotensin II receptor (Rattus norvegicus) (UniProt P29089+P25095+P35351)) for CCCCc1nc2cc(C)cc(C(=O)OC)c2n1Cc1ccc(-c2ccccc2-c2nn[nH]n2)cc1
Key: 41

Exercise: Short answer please: inhibition, Angiotensin II receptor (Rattus norvegicus) (UniProt P29089+P25095+P35351), entry CCCCc1nc2ccc(C)c(C(=O)OCC)c2n1Cc1ccc(-c2ccccc2-c2nn[nH]n2)cc1
Key: 13

Exercise: Record lookup: for Angiotensin II receptor (Rattus norvegicus) (UniProt P29089+P25095+P35351), what inhibition belongs to CCCCc1nc2cc(C(=O)O)ccc2n1Cc1ccc(-c2ccccc2-c2nn[nH]n2)cc1 ?
Key: 7

Exercise: Quick check: inhibition on Angiotensin II receptor (Rattus norvegicus) (UniProt P29089+P25095+P35351), item CCCCOC(=O)c1cccc2nc(CCCC)n(Cc3ccc(-c4ccccc4-c4nn[nH]n4)cc3)c12 ?
Key: 9

Exercise: Record lookup: for Angiotensin II receptor (Rattus norvegicus) (UniProt P29089+P25095+P35351), what inhibition belongs to CCCCc1nc2cc(Cl)cc(C(=O)OC)c2n1Cc1ccc(-c2ccccc2-c2nn[nH]n2)cc1 ?
Key: 57

Exercise: Identify the measured inhibition of CCCCc1nc2cccc(CO)c2n1Cc1ccc(-c2ccccc2-c2nn[nH]n2)cc1 for Angiotensin II receptor (Rattus norvegicus) (UniProt P29089+P25095+P35351).
Key: 16

Exercise: Item: CCCCc1nc2cccc(C(=O)O)c2n1Cc1ccc(-c2ccccc2-c2nnnn2C)cc1 Test system: Angiotensin II receptor (Rattus norvegicus) (UniProt P29089+P25095+P35351) Read-out: inhibition Value: ?
Key: 77

Exercise: Kindly state the measured inhibition obtained for CCCCc1nc2cccc(C)c2n1Cc1ccc(-c2ccccc2-c2nn[nH]n2)cc1 with Angiotensin II receptor (Rattus norvegicus) (UniProt P29089+P25095+P35351).
Key: 8

---

experiment: In vitro for inhibition of specific binding of [125I]-angiotensin II (0.2 nM) to bovine adrenal cortex
Would you kindly list pIC50 for each of these compounds?
pIC50 here: minus log base 10 of the concentration, concentration in moles per litre.

Exercise: Dear colleague, I am looking for the recorded pIC50 of the following compound: CCCCc1nc2cccc(C(=O)O)c2n1Cc1ccc(-c2ccccc2-c2nn[nH]n2)cc1
Key: 6.26

Exercise: For CCCCOC(=O)c1cccc2nc(CCCC)n(Cc3ccc(-c4ccccc4-c4nn[nH]n4)cc3)c12 , what is its reported pIC50?
Key: 5.92

Exercise: Dear colleague, I am looking for the recorded pIC50 of the following compound: CCCCc1nc2cc(OC)ccc2n1Cc1ccc(-c2ccccc2-c2nn[nH]n2)cc1
Key: 6.04

Exercise: What pIC50 value was documented for this compound, CCCCc1nc2cc(C(=O)O)ccc2n1Cc1ccc(-c2ccccc2-c2nn[nH]n2)cc1 ?
Key: 5.26

Exercise: Entry under review: CCCCc1nc2cccc(OC)c2n1Cc1ccc(-c2ccccc2-c2nn[nH]n2)cc1 . Reported pIC50?
Key: 5.55

Exercise: May I ask what pIC50 has been recorded for CCCCc1nc2ccc(C(=O)OC)cc2n1Cc1ccc(-c2ccccc2-c2nn[nH]n2)cc1 ?
Key: 6.36

Exercise: Item CCCCc1nc2cccc(CC(=O)O)c2n1Cc1ccc(-c2ccccc2-c2nn[nH]n2)cc1 has what recorded pIC50?
Key: 5.59

Exercise: Please give the measured pIC50 for this compound: CCCCc1nc2ccc(Cl)cc2n1Cc1ccc(-c2ccccc2-c2nn[nH]n2)cc1
Key: 5.51

Exercise: Which pIC50 is reported for this compound? CCCCc1nc2cc(Cl)ccc2n1Cc1ccc(-c2ccccc2-c2nn[nH]n2)cc1
Key: 5.82
